System: MCF7 breast
Assay: NCI tumour cell line growth inhibition, 48 h
Threshold check on TGI: at or above 30 µM gives rule met, strictly below gives rule not met.

• CC(C(N)=O)N(C)C(=O)c1cnc2ccccc2c1 (stereo not given) = rule met
• CN(C)CCNC(=O)c1c(O)ccc2c1c1c(n2CCc2ccccc2)C(=O)c2ccccc2C1=O = rule not met
• COc1cccc2c1cc1c3c(cc4c(c32)OCO4)C(=O)N1 = rule not met
• COc1ccc(-c2nc(C(=O)c3ccccc3)n(CC(=O)c3ccc(Cl)cc3)c2-c2ccc(OC)cc2)cc1 = rule met
• COCCN1C(=O)C2c3[nH]c4ccccc4c3C3CCC(C(C)(C)C)CC3C2C1=O (stereo not given) = rule met
• O=C(Nc1cccc(C(F)(F)F)c1)c1cc2ccccc2cc1O = rule met
• O=[N+]([O-])C(C=C(n1nnc2ccccc21)n1nnc2ccccc21)=C(n1nnc2ccccc21)n1nnc2ccccc21 = rule met
• O=P(O)(O)CN1CCNCCN(CP(=O)(O)O)CC1 = rule met
• O=C(/C=C/c1ccco1)c1ccc(Nc2nc(Nc3ccc(F)cc3)nc(Nc3ccc(F)cc3)n2)cc1 = rule not met
